assayedTarget: PSOMT2 ((R,S)-norcoclaurine 6-O-methyltransferase) (Papaver somniferum, UniProt Q6WUC1)
Construct: The full-length cDNA generated by RT-PCR was ligated into pFastBac HTa; His6 (N); made in house; host or cells: Spodoptera frugiperda Sf9 (baculovirus, pFastBac HTa)
Sequence (Q6WUC1 whole entry): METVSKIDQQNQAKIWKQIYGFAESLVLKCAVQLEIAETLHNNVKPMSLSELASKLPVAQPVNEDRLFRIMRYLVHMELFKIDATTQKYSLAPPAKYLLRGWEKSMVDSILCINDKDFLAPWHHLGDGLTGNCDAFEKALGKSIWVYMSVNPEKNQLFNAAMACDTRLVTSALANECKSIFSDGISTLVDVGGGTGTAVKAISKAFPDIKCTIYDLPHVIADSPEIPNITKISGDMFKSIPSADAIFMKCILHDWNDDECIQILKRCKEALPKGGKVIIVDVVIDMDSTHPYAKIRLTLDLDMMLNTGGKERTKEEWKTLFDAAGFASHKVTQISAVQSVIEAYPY
assayExplanation: Radioassay of recombinant PSOMT2 with [methyl-3H]-AdoMet (substrate specificity, kinetics, pH and temperature optima)
Format: biochemical
experimentalConditions: 100% activity = 2.0 pmoles/sec/mg total protein; radioassay
Overview of recorded Substrate specificity, relative activity of PSOMT2 for various compounds
valueType: Substrate specificity, relative activity of PSOMT2 (%)

COc1cc2c(cc1O)[C@@H]1Cc3ccc(OC)c(O)c3CN1CC2 [(S)-Scoulerine] ... 0
COc1ccc(CC2NCCc3cc(OC)c(O)cc32)cc1 (racemic) [(R,S)-4′-O-methylcoclaurine] ... 0
COc1cc2c(cc1O)CCNC2Cc1ccc(O)cc1 (racemic) [(R,S)-Isococlaurine] ... 0
COc1ccc(CC2c3cc(OC)c(OC)cc3CCN2C)cc1O (racemic) [(R,S)-Laudanidine] ... 0
COc1ccc(C[C@H]2NCCc3cc(O)c(OC)cc32)cc1O [(R)-Norprotosinomenine] ... 26
COc1ccc(C[C@@H]2NCCc3cc(O)c(OC)cc32)cc1O [(S)-Norprotosinomenine] ... 26
COc1cc2c(cc1O)C(Cc1ccc(O)cc1)N(C)CC2 (racemic) [(R,S)-N-Methylcoclaurine] ... 0
COc1cc2c(cc1O)C[C@H]1c3cc(O)c(OC)cc3CCN1C2 [(S)-Coreximine] ... 0
COc1c(-c2ccc(O)c(O)c2)oc2cc(O)cc(O)c2c1=O ... 0
Oc1ccccc1O ... 0
COc1cc(O)c2c(=O)c(O)c(-c3ccc(O)c(O)c3)oc2c1 ... 0
COc1ccccc1O ... 0

These measurements were taken from patent US7514251B2.
